Experiment summary: Binding constant towards Beta-cyclodextrin at pH 7.4 in unbuffered water at 25 C in a one-to-one complex
Property measured: pKd
Numbers only, as −log10 of the molar value.

Request: Look up pKd for this compound: COC(=O)[C@H]1[C@@H](OC(=O)c2ccccc2)C[C@@H]2CC[C@H]1N2C [COCAINE]
Result: 2.76
